Values compiled from ChEMBL document CHEMBL3044991.

# Tested on: Brassica napus
# Assay Explanation: Herbicidal activity against Brassica napus (oilseed rape) assessed as root growth inhibition at 50 mg/L applied to germinated seeds measured after 65 hr at 28 degC
# Format: functional
# Run Parameters: read-out: GI
Quantity: inhibition of growth at 50 µg/mL
Write the quantity with the unit trailing the number.

IN: I'd like to know its inhibition of growth at 50 µg/mL. The molecule in question is `CCCCOC(=O)COc1ccc(Oc2nc(C)cc(C)n2)cc1`
OUT: 34.2%

IN: I'd like to know its inhibition of growth at 50 µg/mL. The molecule in question is `CCCOC(=O)COc1ccc(Oc2nc(C)cc(C)n2)cc1`
OUT: 33.9%

IN: I'd like to know its inhibition of growth at 50 µg/mL. The molecule in question is `COc1cc(OC)nc(Oc2ccc(OCC(=O)OC(C)C)cc2)n1`
OUT: 21%

IN: I'd like to know its inhibition of growth at 50 µg/mL. The molecule in question is `CCOC(=O)COc1ccc(Oc2nc(OC)cc(OC)n2)cc1`
OUT: 31%

IN: I'd like to know its inhibition of growth at 50 µg/mL. The molecule in question is `CCCOC(=O)COc1ccc(Oc2nc(OC)cc(OC)n2)cc1`
OUT: 13.1%
